# System: NCI-H1395
# protocol: relative viability (nuclei count vs DMSO), 5 days (fraction); higher = more cells survive
# details: first compound 0.2 µM
readout type: relative viability
Output: the number by itself.

Check out these entries, answers already filled in.
Prompt: Given CCNC(=O)c1noc(-c2cc(C(C)C)c(O)cc2O)c1-c1ccc(CN2CCOCC2)cc1 [Luminespib] + C[C@]1(O)C[C@@H](c2nc(-c3ccc4ccc(-c5ccccc5)nc4c3)c3c(N)nccn32)C1 [Linsitinib] (partner 1 µM) , state its recorded relative viability.
Completion: 0.326

Prompt: Do the same for Cc1csc(=NC2CCCCC2)n1/N=C/c1ccc(O)c(O)c1O [MIM1] + CC1(C)CCC(c2ccc(Cl)cc2)=C(CN2CCN(c3ccc(C(=O)NS(=O)(=O)c4ccc(N[C@H](CCN5CCOCC5)CSc5ccccc5)c(S(=O)(=O)C(F)(F)F)c4)cc3)CC2)C1 [Navitoclax] (partner 0.5 µM) please
Completion: 1.06

Prompt: Would you kindly repeat that for CCNC(=O)c1noc(-c2cc(C(C)C)c(O)cc2O)c1-c1ccc(CN2CCOCC2)cc1 [Luminespib] + O=C(CCCCCCC(=O)Nc1ccccc1)NO [Vorinostat] (partner 1 µM) ?
Completion: 0.289

Attention now shifts to the item below.
Prompt: Given Cc1csc(=NC2CCCCC2)n1/N=C/c1ccc(O)c(O)c1O [MIM1] + CS(=O)(=O)CCNCc1ccc(-c2ccc3ncnc(Nc4ccc(OCc5cccc(F)c5)c(Cl)c4)c3c2)o1 [Lapatinib] (partner 2 µM) , state its recorded relative viability.
Completion: 1.14
